Values from PubChem BioAssay (NCI)

# ASSAY_REMARKS: NCI Yeast Anticancer Drug Screen. Data for the wt2 strain (AID 169);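 further: 0% = growth of vehicle-treated yeast cultures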
# TEST_CONDITIONS: S. cerevisiae wt2 strain growth inhibition; at 1.2 µM; stronger effect = higher value
This is part of a sample that, as a whole, favours compounds with a hit. Of some 79,000 tested, about 15% had one in any assay.
Quick reference: growth inhibition of the listed items.
Answer in %, number only, no unit symbol.

Example results:
>>> observed("C=C(CCCO)[C@@H]1CC[C@@](C)(O)[C@H]1C")
-30
>>> observed("CCOC(=O)[C@]1(Br)CC[C@@]1(Br)C(=O)OCC")
-67
>>> observed("Nc1nc(N)c2cc(Sc3ccc4ccccc4c3)ccc2n1")
-18

Please turn your attention to the following entry.
For reference, reported growth inhibition for `BrCc1ccccc1C(c1ccccc1)c1ccccc1` stands at -1
